Target: T1, Human HEVM recombinant protein (Sino Biological, 10334-H02H) (human, UniProt Q92956 39-202)
T1 construct: construct known only by catalogue number; also called HVEM; human HVEM
T1 sequence (looked up): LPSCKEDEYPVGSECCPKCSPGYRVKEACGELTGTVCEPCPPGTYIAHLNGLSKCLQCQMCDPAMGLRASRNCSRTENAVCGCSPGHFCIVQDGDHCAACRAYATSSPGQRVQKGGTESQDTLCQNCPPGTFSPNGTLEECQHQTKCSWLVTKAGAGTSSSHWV
Assay: competition ELISA, competitor BTLA-His
Recorded pIC50, one value per entry.
Expect pIC50 as a plain number equal to -log10 of the molar concentration.

Check out these entries, answers already filled in.
1. Ab_050 (H5S19-9A11A) (antibody, V domains shown, also called Ab_50) VH: QVQLKQSGPGLVQPSQSLSITCTVSGFSLTTYGVHWVRQSPGKGLEWLGVIWSGGSTDYNAAFISRLSISKDNSKSQVFFKMNSLQANDTAIYYCARRGYGSPYYYAMDYWGQGTSVTVSS VL: EIVLTQSPALMAASPGEKVTITCSVSSSISSSNLHWYQQKSETSPKPWIYGTSNLASGVPVRFSGSGSGTSYSLTISSMEAEDAATYYCQQWSSYPLTFGAGTKLELK ... 8.52
2. Ab_051 (H5S19-4A6A) (antibody, V domains shown, also called Ab_51) VH: QVQLKESGPGLVAPSQSLSITCTVSGFSLTGYGVNWVRQPPGKGLEWLGMIWGDGNTDYNSALKSRLSISKDNSKSQVFLKMNSLQTDDTARYYCARSYGSYWGQGTLVTVSA VL: QIVLTQSPAIMSASPGEKVTMTCSASSSVSYMYWYQQKPGSSPRLLIYDTSNLASGVPVRFSGSGSGTSYSLTISRMEAEDAATYYCQQWSSYPFTFGSGTKLEIK ... 8.89
3. Ab_027 (H5S15-17A16A) (antibody, V domains shown, also called Ab_27) VH: EVQLQQSGAELVKPGASVKLSCTASGFNIKDTYMHWVKQRPEQGLEWIGRIAPANGKTKFDPKFQGKATITADTSSNTAYLQLSSLTSEDTAVYYCANYYGRSNDWFVYWGQGTLVTVSA VL: DVLMTQTPLSLPVSLGDQASISCRSSQSIVHSNGITYLEWYLQKPGQSPELLIYKVSNRFSGVPDRFSGSGSGTDFTLKISRVEAEDLGVYYCFQGSHVPLTFGAGTKLELK ... 8.66
4. Ab_001 (H5S14-1A1A) (antibody, V domains shown, also called Ab_1) VH: DVKLVESGGGLVKPGGSLKLSCAASVFTFSRYTMSWVRQTPEKRLEWVATISSGGSYTYYPDSVKGRFTISRDNAKNTLYLQMSSLKSEDTAIYYCTRGGDGLFDYWGQGTALTVSS VL: DVQITQSPSYLAASPGETITINCRASKSISKYLAWYQEKPGKTNQLLIYSGSTLQSGIPSRFSGSGSGTDFTLTISSLEPEDFAMYYCQQHNEYPWTFGGGTKLEIK ... 8.66
5. Ab_063 (H5S20-4A4A) (antibody, V domains shown, also called Ab_159; Ab_63) VH: EVKLVESGGGLMKPGGSLKLSCAASGFTFSSYAMSWVRQTPETRLEWVASISSGGSTYYPDSVKGRFTISRDNVRNILYLQMSSLRSEDTAMYFCTRGGYGSSYVIWGQGTTLTVSS VL: DIVMSQSPSSLAVSVGEKITMSCKSSQSLLFSSIQKNYLAWYQQKPGQSPKLLVYWASTRESGVPDRFTGSGSGTDFTLTISSVKAEDLAVYYCQQYYSYPFTFGSGTKLEIK ... 8.66

INPUT: Dear colleague, please send me the reported pIC50 for Ab_078 (H5S20-45A34A) (antibody, V domains shown, also called Ab_78) VH: EVQLQQSGAELVRSGASVKLSCAASGFNIKDYYMHWVKQRPEQGLEWIGWIDPENGDTEFAPKFQGKATLTADTSSNTAYLQLSSLTSEDTAVYYCNTRTLGYWGQGTLVTVSA VL: QIVLTQSPALMSASPGEKVTMTCTASSSVSYMYWYQQKPRSSPKPWIYLTSNLASGVPARFSGSGSGTSYSLTISSMEAEDAATYYCQQWSSNPLTFGAGTKLELR when you can.
OUTPUT: 8.82

INPUT: Note down pIC50 recorded for Ab_035 (H5S15-9A10A) (antibody, V domains shown, also called Ab_35) VH: DVQLVESGGGLVQPGGSRKLSCAASGFTFSDFGMHWVRQAPEKGLEWVAHISSGSSTIYYADTVKGRFTISRDNPKNTLFLQMTSLRSEDTAMYYCARGAYGNFAWFPYWGQGTLVTVSA VL: DVVMTQTPLSLPVSLGDQASISCRSSQSLVHTNGNTYLHWYLQKPGQSPRLLIYKVSNRFSGVPDRFSGGGSGTDFTLKISRVEAEDLGVYFCSQSTHVPTFGSGTKLEIK
OUTPUT: 8.85

INPUT: Dear colleague, please send me the reported pIC50 for Ab_080 (H5S20-27A23A) (antibody, V domains shown, also called Ab_80) VH: EVQLQQSGTVLARPGASVKMSCKASGYSFTSYWMHWLKQRPGQGLEWIGAIYPGNSDTVFNQKFKGKAKLTAVTSATTAYMELSSLTNEDSAVYYCTKEPRTIEGAWFTYWGQGTLVTVSA VL: DIVMTQSPSSLTVPAGEKVTMSCKSSQSLLNSENQKNYLTWYQQKPGQPPKLLIYWASTRESGVPDRFTGSGSGTDFTLTISSVQAEDLAVYYCQSDYSYPLTFGAGTKLELK when you can.
OUTPUT: 8.74

INPUT: Look up pIC50 of Ab_058 (H5S19-6A8A) (antibody, V domains shown, also called Ab_58) VH: EVQLVESGGGLVKPGGSLKLSCAASGFTFNIYTMSWVRQSPEMRLEWVAEISSGGSHTYYPDTVTGRFTISRDNAKNTLYLEMSSLRSEDTAIYYCARGGSLFDYWGQGTTLTVSS VL: DVQITQSPSYLAASPGETITINCRTSKNISKYLAWYQEKPGKTNKLLIYSGSTLQSGIPSRFSGSGSGTDFTLTISSLEPEDFVMYHCQQHNEYPWTFGGGTKLEIK and report it.
OUTPUT: 8.89

INPUT: Complete the entry with pIC50 for Ab_074 (H5S20-52A21A) (antibody, V domains shown, also called Ab_74) VH: EVQLQQSGAELVKPGASVKLSCTASGFNIKDTYIHWLNQRPEQGLEWIGRIDPANGKTKFAPKFQDKATITADTSSNTAYLQLSSLTSEDTAVYYCAGYGNSPWFAYWGQGTLVTVSA VL: DVLMTQTPLSLPVSLGDQASISCRSSQSIVHSNGNTYLEWYLQKPGQSPKLLIYKVSNRVSGVPDRFSGSGSGTDFTLKISRVEAEDLGVYYCFQGSHVPLTFGAGTKLELK
OUTPUT: 8.80

INPUT: Look up and report measured pIC50 for this entry: Ab_034 (H5S15-16A11B) (antibody, V domains shown, also called Ab_34) VH: DVQLVESGGGLVQPGGSRKLSCAASGFTFSSFGMHWVRQAPEKGLEWVAHISSGSSTIYYADTVKGRFTISRDNPKNTLFLQMTSLRSEDTAMYYCARGAYGNFAWFPYWGQGTLVTVSA VL: DVVMTQTPLSLSVSLGDQASISCRSSQSLVHSNGNTYLHWYLQKPGQSPKLLIYKVSNRFSGVPDRFSGSGSGTDFTLKISRVEAEDLGVYFCSQSTHVPTFGSGTKLEIK
OUTPUT: 8.89
